Data provenance is ChEMBL document CHEMBL1158449.

Measurement Description: Cytotoxicity against splenocytes after 48 hrs by MTT assay
Type: cell-based, Splenocyte
Recorded Endpoint: CC50 at 48 h (µM)
One number for each entry, in µM.

COc1c2c(cc3oc4oc5cc(O)c(O)cc5c4c(=O)c13)OC(C)(C)C=C2 = 3.03

Attention now shifts to the item below.
Using the record for "COc1c2c(cc3oc(=O)c4c5cc(O)c(O)cc5oc4c13)OC(C)(C)C=C2" , report its CC50 at 48 h.
26.3
